# Improvement in pH responsiveness of inhibitory peptide relative to WT annotations
# TESTED TARGET: T1, thermostable variant of Streptomyces mobaraensis transglutaminase (Streptomyces mobaraensis, UniProt P81453 79-407)
# T1 sequence: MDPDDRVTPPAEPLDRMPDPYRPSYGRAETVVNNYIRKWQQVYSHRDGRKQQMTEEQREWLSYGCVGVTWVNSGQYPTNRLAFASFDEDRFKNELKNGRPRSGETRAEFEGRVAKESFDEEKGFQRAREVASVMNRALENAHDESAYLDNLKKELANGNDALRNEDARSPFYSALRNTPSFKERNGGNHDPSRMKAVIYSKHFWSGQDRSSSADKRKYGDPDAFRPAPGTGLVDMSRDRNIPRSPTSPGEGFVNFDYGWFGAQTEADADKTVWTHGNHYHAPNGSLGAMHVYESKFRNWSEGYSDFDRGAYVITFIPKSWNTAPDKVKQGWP
# METHOD NOTES: cell-based or functional assay

(Q) Can you look up the measured Improvement in pH responsiveness of inhibitory peptide relative to WT of MDNGAGSETKSYAETYRLTADDVANINALNESAPAASSAGPSFRAP [pro-peptide variant E7S] for me?
(A) > 5 fold

(Q) Improvement in pH responsiveness of inhibitory peptide relative to WT lookup needed for MDNGAGEETKSYAETYRLTADDVANINALNESAPAASSAGPSFRAE [pro-peptide variant P46E] , thanks.
(A) > 1.2 fold

(Q) Sample MDNGAGEETKSYAETYRGTADDVANINALNESAPAASSAGPSFRAP [pro-peptide variant L18G] — what was its Improvement in pH responsiveness of inhibitory peptide relative to WT?
(A) > 1.2 fold

(Q) So what does the record say about Improvement in pH responsiveness of inhibitory peptide relative to WT for MDNGAGEETKSYAETYRLTADGVANINALNESAPAASSAGPSFRAP [pro-peptide variant D22G] ?
(A) > 1.2 fold

(Q) Entry MDNGAGEETKSYANTYRLTADDVANINALNESAPAASSAGPSFRAP [pro-peptide variant E14N] has what Improvement in pH responsiveness of inhibitory peptide relative to WT?
(A) > 5 fold

---
(Q) Look at this binder and give its reported Improvement in pH responsiveness of inhibitory peptide relative to WT. MDNGAGNETKSYAETYRLTADDVANINALNESAPAASSAGPSFRAP [pro-peptide variant E7N]
(A) > 5 fold

(Q) Quick check: Improvement in pH responsiveness of inhibitory peptide relative to WT of MDNGAGEETKSYAETYRLTADDVANYNALNESAPAASSAGPSFRAP [pro-peptide variant I26Y] ?
(A) > 1.2 fold

(Q) Looking for the measured Improvement in pH responsiveness of inhibitory peptide relative to WT of MDNGAGEEKKSYAETYRLTADDVANINALNESAPAASSAGPSFRAP [pro-peptide variant T9K] , can you help?
(A) > 1.2 fold

(Q) Reported Improvement in pH responsiveness of inhibitory peptide relative to WT, binder MDNGAGEETKLYAETYRLTADDVANINALNESAPAASSAGPSFRAP [pro-peptide variant S11L] : ____
(A) > 1.2 fold

(Q) Which Improvement in pH responsiveness of inhibitory peptide relative to WT reading was recorded for the binder MDNGAGEETKSYAETYRLTADDVANINALNESAPAASFAGPSFRAP [pro-peptide variant S38F] ?
(A) > 1.2 fold

(Q) What measured Improvement in pH responsiveness of inhibitory peptide relative to WT goes with MTNGAGEETKSYAETYRLTADDVANINALNESAPAASSAGPSFRAP [pro-peptide variant D2T] ?
(A) > 1.2 fold

(Q) Any idea what Improvement in pH responsiveness of inhibitory peptide relative to WT was measured for MDNGAGEETKSYAETYRLTADSVANINALNESAPAASSAGPSFRAP [pro-peptide variant D22S] ?
(A) > 1.2 fold

(Q) Look at this binder and give its reported Improvement in pH responsiveness of inhibitory peptide relative to WT. MDNGAGEYTKSYAETYRLTADDVANINALNESAPAASSAGPSFRAP [pro-peptide variant E8Y]
(A) > 1.2 fold

(Q) Would you kindly share the measured Improvement in pH responsiveness of inhibitory peptide relative to WT for MDNGAGEETKSYAETYRLTADDVVNINALNESAPAASSAGPSFRAP [pro-peptide variant A24V] ?
(A) > 5 fold

(Q) So what does the record say about Improvement in pH responsiveness of inhibitory peptide relative to WT for MDNGAGEETKSYAETYRLTALDVANINALNESAPAASSAGPSFRAP [pro-peptide variant D21L] ?
(A) > 1.2 fold

(Q) Could you share which Improvement in pH responsiveness of inhibitory peptide relative to WT value was measured for MDNGAGEETRSYAETYRLTADDVANINALNESAPAASSAGPSFRAP [pro-peptide variant K10R] ?
(A) > 1.2 fold
